Protocol: Drug level in Staphylococcus aureus infection-induced aortic valve endocarditis rabbit serum at 20 mg/kg, iv administered every 12 hrs measured 12 hrs after seventh dose
Assay type: ADME, organism-based, Oryctolagus cuniculus
Design: dose 20 mg/kg, route intravenous
Experimental conditions: read-out: Drug uptake
Measured endpoint: concentration at 12 h (ng/mL)

COc1c(N2C[C@@H]3CCCN[C@@H]3C2)c(F)cc2c(=O)c(C(=O)O)cn(C3CC3)c12 [MOXIFLOXACIN] = 510

* * *

Protocol: AUC (0 to 12 hrs) in Staphylococcus aureus infection-induced aortic valve endocarditis rabbit at 20 mg/kg, iv administered every 12 hrs measured after third dose
Assay type: ADME, organism-based, Oryctolagus cuniculus
Set-up: time < 12 hr, dose 20 mg/kg, route intravenous
Experimental conditions: plasma
Measured endpoint: AUC at 12 h (ng·h/mL)

COc1c(N2C[C@@H]3CCCN[C@@H]3C2)c(F)cc2c(=O)c(C(=O)O)cn(C3CC3)c12 = 16500

These entries and their values trace back to ChEMBL document CHEMBL1155768.
